# target_or_test_system: B1R receptor of rats (rB1R) (Rattus norvegicus)
# Construct: host or cells: CHO K1 cells
# assay_summary: FLIPR Ca2+ assay (Fluo-4) on CHO K1 cells stably transfected with the B1R gene of rats
# Type: cell-based
# particulars: CHO-K1; test substance 10 μM; agonist Des-Arg9-bradykinin 100 nM; % inhibition compared to the maximum achievable inhibition
property_measured: inhibition at 10 µM (%)

compound | target_or_test_system | property_measured | readout_value
COc1cc(C)c(S(=O)(=O)N2CCCCC2COCC(=O)N2CCn3c(CN4CCCC4)ccc3C2)c(C)c1 (centres unmarked) | B1R receptor of rats (rB1R) (Rattus norvegicus) | inhibition at 10 µM | 102
Cc1cc(C)c(S(=O)(=O)N2CCCCC2COCC(=O)N2CCn3ccnc3C2)c(C)c1 (centres unmarked) | B1R receptor of rats (rB1R) (Rattus norvegicus) | inhibition at 10 µM | 91
COc1cc(C)c(S(=O)(=O)N2CCCCC2CCCC(=O)N2CCn3c(Cc4cccnc4)ccc3C2)c(C)c1 (centres unmarked) | B1R receptor of rats (rB1R) (Rattus norvegicus) | inhibition at 10 µM | 103
COc1cc(C)c(S(=O)(=O)N2CCCCC2COCC(=O)N2CCn3cccc3C2c2ccc(Cl)nc2)c(C)c1 (centres unmarked) | B1R receptor of rats (rB1R) (Rattus norvegicus) | inhibition at 10 µM | 99
O=C(COCC1CCc2ccccc2N1S(=O)(=O)c1ccc(Cl)c(Cl)c1)N1CCn2c(CN3CCCC3)ccc2C1 (centres unmarked) | B1R receptor of rats (rB1R) (Rattus norvegicus) | inhibition at 10 µM | 91
Cc1cc(C)c(S(=O)(=O)N2CCCCC2COCC(=O)N2CCn3c(CN4CCOCC4)ccc3C2c2ccccc2)c(C)c1 (centres unmarked) | B1R receptor of rats (rB1R) (Rattus norvegicus) | inhibition at 10 µM | 103
O=C(CC1CCCCN1S(=O)(=O)c1cccc(C(F)(F)F)c1)N1CCn2c(CN3CCCC3)ccc2C1 (centres unmarked) | B1R receptor of rats (rB1R) (Rattus norvegicus) | inhibition at 10 µM | 96
COc1cc(C)c(S(=O)(=O)N2CCCCC2COCC(=O)N2CCn3cccc3C2C(C)(C)C)c(C)c1 (centres unmarked) | B1R receptor of rats (rB1R) (Rattus norvegicus) | inhibition at 10 µM | 96

* * *

# target_or_test_system: B1R receptor of rats (rB1R) (Rattus norvegicus)
# Construct: host or cells: CHO K1 cells
# assay_summary: FLIPR Ca2+ assay (Fluo-4) on CHO K1 cells stably transfected with the B1R gene of rats
# Format: cell-based
# particulars: CHO-K1; test substance 10 μM; agonist Des-Arg9-bradykinin 100 nM; % inhibition compared to the maximum achievable inhibition
property_measured: inhibition at 10 µM (%)

compound | target_or_test_system | readout_value
COc1cc(C)c(S(=O)(=O)N2CCCCC2COCC(=O)N2CCn3cccc3C2c2cccc(F)c2)c(C)c1 (stereo not drawn) | B1R receptor of rats (rB1R) (Rattus norvegicus) | 98
COc1cc(C)c(S(=O)(=O)N2CCCCC2COCC(=O)N2CCn3cc(CN4CCCCC4)nc3C2)c(C)c1 (stereo not drawn) | B1R receptor of rats (rB1R) (Rattus norvegicus) | 106
Cc1cc(C)c(S(=O)(=O)N2CCCCC2COCC(=O)N2CCn3cccc3C2c2cccc(F)c2)c(C)c1 (stereo not drawn) | B1R receptor of rats (rB1R) (Rattus norvegicus) | 99
COc1cc(C)c(S(=O)(=O)N2CCCCC2CCCC(=O)N2CCn3c(Cc4ccncc4)ccc3C2)c(C)c1 (stereo not drawn) | B1R receptor of rats (rB1R) (Rattus norvegicus) | 100
COc1cc(C)c(S(=O)(=O)N2CCCCC2CCC(=O)N2CCn3c(CCc4ccncc4)ccc3C2)c(C)c1 (stereo not drawn) | B1R receptor of rats (rB1R) (Rattus norvegicus) | 99
COc1ccc(C2c3cccn3CCN2C(=O)COCC2CCCCN2S(=O)(=O)c2c(C)cc(OC)cc2C)cc1 (stereo not drawn) | B1R receptor of rats (rB1R) (Rattus norvegicus) | 98

* * *

# target_or_test_system: B1R receptor of rats (rB1R) (Rattus norvegicus)
# Construct: host or cells: CHO K1 cells
# Sequence (P97583 1-337): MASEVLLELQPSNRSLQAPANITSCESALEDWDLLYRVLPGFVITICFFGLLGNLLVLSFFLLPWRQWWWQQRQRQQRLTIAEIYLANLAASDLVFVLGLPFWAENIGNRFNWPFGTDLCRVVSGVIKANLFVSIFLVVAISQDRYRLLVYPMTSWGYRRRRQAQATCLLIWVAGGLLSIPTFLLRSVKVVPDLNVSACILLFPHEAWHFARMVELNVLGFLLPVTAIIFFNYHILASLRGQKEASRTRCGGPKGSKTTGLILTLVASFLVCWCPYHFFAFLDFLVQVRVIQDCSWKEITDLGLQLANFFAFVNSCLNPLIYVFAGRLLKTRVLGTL
# assay_summary: FLIPR Ca2+ assay (Fluo-4) on CHO K1 cells stably transfected with the B1R gene of rats
# Assay type: cell-based
# particulars: CHO-K1; test substance 10 μM; agonist Des-Arg9-bradykinin 100 nM; % inhibition compared to the maximum achievable inhibition
property_measured: inhibition at 10 µM (%)

compound | target_or_test_system | u | inhibition at 10 µM
CCCCC1c2ccc(CN(C)C)n2CCN1C(=O)COCC1CCCCN1S(=O)(=O)c1c(C)cc(OC)cc1C (centres unmarked) [(67)] | B1R receptor of rats (rB1R) (Rattus norvegicus) | % | 100
COc1cc(C)c(S(=O)(=O)N2CCCCC2CCCC(=O)N2CCn3cc(Cc4ccncc4)nc3C2)c(C)c1 (centres unmarked) [(119)] | B1R receptor of rats (rB1R) (Rattus norvegicus) | % | 107
COc1cc(C)c(S(=O)(=O)N2CCCCC2CCCC(=O)N2CCn3c(ccc3-c3ccncc3)C2)c(C)c1 (centres unmarked) [(110)] | B1R receptor of rats (rB1R) (Rattus norvegicus) | % | 101
CCC1c2ccc(C)n2CCN1C(=O)COCC1CCCCN1S(=O)(=O)c1c(C)cc(C)cc1C (centres unmarked) [(58)] | B1R receptor of rats (rB1R) (Rattus norvegicus) | % | 103
Cc1cc(C)c(S(=O)(=O)N2CCCCC2COCC(=O)N2CCn3c(CN4CCCC4)ccc3C2c2ccccc2)c(C)c1 (centres unmarked) [(47)] | B1R receptor of rats (rB1R) (Rattus norvegicus) | % | 103

* * *

# target_or_test_system: human B1R receptor (hB1R) (Homo sapiens, UniProt P46663)
# Construct: host or cells: CHO K1 cells
# Sequence (P46663 whole entry): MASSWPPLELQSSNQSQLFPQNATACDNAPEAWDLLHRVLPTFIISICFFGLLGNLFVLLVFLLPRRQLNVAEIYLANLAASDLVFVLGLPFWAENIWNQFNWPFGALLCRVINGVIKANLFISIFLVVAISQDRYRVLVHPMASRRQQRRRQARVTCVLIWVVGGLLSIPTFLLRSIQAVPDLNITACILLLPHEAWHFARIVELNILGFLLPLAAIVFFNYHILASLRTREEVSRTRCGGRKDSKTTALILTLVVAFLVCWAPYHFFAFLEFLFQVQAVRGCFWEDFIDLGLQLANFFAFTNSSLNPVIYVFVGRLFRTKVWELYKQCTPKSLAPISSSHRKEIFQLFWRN
# assay_summary: FLIPR Ca2+ assay (Fluo-4) on CHO K1 cells stably transfected with the human B1R gene
# Type: cell-based
# particulars: CHO-K1; test substance 10 μM; agonist Lys-Des-Arg9-bradykinin 0.5 nM; % inhibition compared to the maximum achievable inhibition
property_measured: inhibition at 10 µM (%)

These recorded examples may help you get a feel for the data.
molecule | target_or_test_system | property_measured | readout_value
Cc1cc(C)c(S(=O)(=O)N2CCCCC2COCC(=O)N2CCn3c(CN(C)C)ccc3C2CCc2ccccc2)c(C)c1 (stereo not shown) [(51)] | human B1R receptor (hB1R) (Homo sapiens, UniProt P46663) | inhibition at 10 µM | 101
COc1cc(C)c(S(=O)(=O)N2CCCCC2COCC(=O)N2CCn3c(CN(C)C)ccc3C2CCc2ccccc2)c(C)c1 (stereo not shown) [(66)] | human B1R receptor (hB1R) (Homo sapiens, UniProt P46663) | inhibition at 10 µM | 102
COc1cc(C)c(S(=O)(=O)N2CCCCC2COCC(=O)N2CCn3cc(CN4CCCCC4)nc3C2)c(C)c1 (stereo not shown) [(2)] | human B1R receptor (hB1R) (Homo sapiens, UniProt P46663) | inhibition at 10 µM | 105
COc1cc(C)c(S(=O)(=O)N2CCCCC2COCC(=O)N2CCn3ccnc3C2)c(C)c1 (stereo not shown) [(23)] | human B1R receptor (hB1R) (Homo sapiens, UniProt P46663) | inhibition at 10 µM | 70
CN1CCN(Cc2ccc3n2CCN(C(=O)COCC2CCc4ccccc4N2S(=O)(=O)c2ccc(Cl)c(Cl)c2)C3)CC1 (stereo not shown) [(11)] | human B1R receptor (hB1R) (Homo sapiens, UniProt P46663) | inhibition at 10 µM | 100
COc1cc(C)c(S(=O)(=O)N2CCCCC2CCC(=O)N2CCn3c(Cc4cccnc4)ccc3C2)c(C)c1 (stereo not shown) [(113)] | human B1R receptor (hB1R) (Homo sapiens, UniProt P46663) | inhibition at 10 µM | 97
COc1cc(C)c(S(=O)(=O)N2CCCCC2CCCC(=O)N2CCn3c(CCc4cccnc4)ccc3C2)c(C)c1 (stereo not shown) [(103)] | human B1R receptor (hB1R) (Homo sapiens, UniProt P46663) | inhibition at 10 µM | 95
Cc1cc(C)c(S(=O)(=O)N2CCCCC2COCC(=O)N2CCn3cccc3C2CCc2ccccc2)c(C)c1 (stereo not shown) [(45)] | human B1R receptor (hB1R) (Homo sapiens, UniProt P46663) | inhibition at 10 µM | 45

[A] Cc1cc(C)c(S(=O)(=O)N2CCCCC2COCC(=O)N2CCn3c(CN(C)C)ccc3C2c2cccs2)c(C)c1 (stereo not shown) [(53)]
[B] O=C(CC1CCCCN1S(=O)(=O)c1cccc(C(F)(F)F)c1)N1CCn2c(CCCN3CCCC3)ccc2C1 (stereo not shown) [(17)]
[C] O=C(CC1CCCCN1S(=O)(=O)c1cccc(C(F)(F)F)c1)N1CCn2c(ccc2-c2cccnc2)C1 (stereo not shown) [(93)]
[D] Cc1cc(C)c(S(=O)(=O)N2CCCCC2COCC(=O)N2CCn3cccc3C2c2cccc(C(F)(F)F)c2)c(C)c1 (stereo not shown) [(44)]
Req: Order the 4 molecules from highest to lowest inhibition at 10 µM. # format: label list in the order the request specifies
Resp: A, B, C, D
(A: 92%, B: 50%, C: 18%, D: 10%)

[I] COc1cc(C)c(S(=O)(=O)N2CCCCC2COCC(=O)N2CCn3c(CN4CCOCC4)ccc3C2c2ccccc2)c(C)c1 (stereo not shown) [(64)]
[II] COc1cc(C)c(S(=O)(=O)N2CCCCC2COCC(=O)N2CCn3cccc3C2c2cccc(C(F)(F)F)c2)c(C)c1 (stereo not shown) [(30)]
Req: // which entry reports the smaller inhibition at 10 µM, I or II ? Write down the label attached to your selection.
Resp: II
